Target system: JAK3 enzyme (Homo sapiens (Human))
Experiment notes: JAK Caliper Enzyme Assay at 4 μM or 1 mM ATP
Assay type: biochemical
Condition set: read-out: JAK3 (4 μM ATP) IC50; 4 μM ATP
Recorded endpoint: IC50 (nM)

Guide cases for IC50, answers given:
Field IC50 (system: JAK3 enzyme (Homo sapiens (Human))) for entry C/C=C/C(=O)N1CCC[C@@H](N2CC(C)c3c[nH]c4ncnc2c34)C1 (mixture of isomers) = 4940

Field IC50 (system: JAK3 enzyme (Homo sapiens (Human))) for entry C=CC(=O)N1C[C@H](Nc2ncnc3[nH]ccc23)[C@H]2CC[C@@H]1C2 = 190

Field IC50 (system: JAK3 enzyme (Homo sapiens (Human))) for entry C=CC(=O)N1CCC(Nc2cnc3[nH]cc(C(=O)N[C@H]4CC[C@@H](F)C4)c3n2)CC1 = 0.2

I. C=CC(=O)N1CCC(Oc2cnc3[nH]cc(-c4ccc(S(C)(=O)=O)cc4)c3n2)CC1
II. C=CC(=O)N1CCC[C@@H](Nc2ncnc3[nH]cc(-c4cccnc4)c23)C1
III. C=CC(=O)N1CCC(Nc2cnc3[nH]cc(-c4ccccc4)c3n2)CC1
IV. C=CC(=O)N1CC[C@@H]2CN(c3ncnc4[nH]ccc34)[C@@H]2C1
V. C=CC(=O)N1CCC(Oc2cnc3[nH]cc(-c4ccnc(C)c4)c3n2)CC1
## Task # sort list by recorded IC50, greatest to least Please express your ranking as an ordered list of the labels.
## Result IV, I, II, V, III
(IV: 988 nM, I: 7.1 nM, II: 1.6 nM, V: 0.8 nM, III: 0.2 nM)

* * *

Target system: UniProt:P52333
Experiment notes: JAK Caliper Enzyme Assay at 4 μM or 1 mM ATP
Format: biochemical
Condition set: read-out: JAK3 (1 mM ATP) IC50; 1 mM ATP
pIC50: −log10 of the molar value.
Recorded endpoint: pIC50

Field pIC50 (system: UniProt:P52333) for entry C=CC(=O)N1CC[C@@H](Nc2cnc3[nH]cc(C(=O)NC(C)C)c3n2)[C@H](OC)C1 = 7.19

Field pIC50 (system: UniProt:P52333) for entry C=CC(=O)N1C[C@H](Nc2ncnc3[nH]cc(CCOC)c23)CC[C@@H]1C = 7.22

Field pIC50 (system: UniProt:P52333) for entry C=CC(=O)N1CCC(Nc2cnc3[nH]cc(C(=O)N[C@@H]4C[C@H]4C(F)(F)F)c3n2)CC1 = 7.69

A. C=CC(=O)N1[C@H](C)CN(c2cnc3[nH]cc(C(=O)NC(C)C)c3n2)C[C@@H]1C
B. C=CC(=O)N1CC[C@@H](F)[C@@H](Nc2ncnc3[nH]ccc23)C1
C. C=CC(=O)N1CCN(c2cnc3[nH]cc(C(=O)NC(C)C)c3n2)CC1
## Task # sort list by recorded pIC50, greatest to least Please express your ranking as an ordered list of the labels.
## Result C, B, A

* * *

Target system: JAK3 enzyme (Homo sapiens (Human))
Experiment notes: JAK Caliper Enzyme Assay at 4 μM or 1 mM ATP
Assay type: biochemical
Condition set: read-out: JAK3 (4 μM ATP) IC50; 4 μM ATP
pIC50: −log10 of the molar value.
Recorded endpoint: pIC50

Guide cases for pIC50, answers given:
Recorded result, C=CC(=O)N1CC2(C1)CN(c1cnc3[nH]cc(C(=O)NC(C)C)c3n1)C2 , pIC50: 6.93

Recorded result, C=CC(=O)N1CCC(Nc2cnc3[nH]cc(-c4ccc(F)nc4)c3n2)CC1 , pIC50: 9.52

Recorded result, C=CC(=O)N1CCC(Nc2cnc3[nH]cc(C(=O)N[C@@H]4C[C@H]4C(F)(F)F)c3n2)CC1 , pIC50: 9.70

a. C=CC(=O)N1CCN(c2cnc3[nH]cc(C(=O)NC(C)C)c3n2)C[C@@H]1C
b. C=CC(=O)N1CC[C@@H]2CCN(c3ncnc4[nH]cc(CCOC)c34)[C@@H]2C1
## Task Between a and b , which one has the lower reported pIC50 value? Refer to your chosen entry by its label in the reply.
## Result b
(b: 7.45, a: 8.96)

a. C=CC(=O)N1CCC(Nc2cnc3[nH]cc(-c4ccc(C)nc4)c3n2)CC1
b. C=CC(=O)N1CCC[C@@H](Nc2ncnc3[nH]cc(C4CC4)c23)C1
## Task Thinking about recorded pIC50 values, which is higher, a or b ? Refer to your chosen entry by its label in the reply.
## Result a

* * *

Target system: UniProt P52333
Experiment notes: JAK Caliper Enzyme Assay at 4 μM or 1 mM ATP
Format: biochemical
Condition set: read-out: JAK3 (4 μM ATP) IC50; 4 μM ATP
Recorded endpoint: IC50 (nM)

a. C=CC(=O)N1CCC(Oc2cnc3[nH]cc(-c4cncc(F)c4)c3n2)CC1
b. C=CC(=O)N1CCC(Nc2cnc3[nH]cc(C(=O)NC[C@H](C)CC(F)(F)F)c3n2)CC1
## Task Between a and b , which one has the lower reported IC50 value? Refer to your chosen entry by its label in the reply.
## Result b
(b: 0.2 nM, a: 0.8 nM)

a. C=CC(=O)N1CCC[C@@H](Nc2ncnc3[nH]cc(C)c23)C1
b. C=CC(=O)N1CCC(Nc2cnc3[nH]cc(C(=O)N[C@H](C)CCC)c3n2)CC1
## Task Between a and b , which one has the lower reported IC50 value? Refer to your chosen entry by its label in the reply.
## Result b

A. CS/C=C/C(=O)N1CCC[C@@H](Nc2ncnc3[nH]ccc23)C1
B. C=CC(=O)N1CC[C@H](Nc2cnc3[nH]ccc3n2)C1
## Task Thinking about recorded IC50 values, which is higher, A or B ? Refer to your chosen entry by its label in the reply.
## Result A

* * *

Target system: UniProtKB P52333
Experiment notes: JAK Caliper Enzyme Assay at 4 μM or 1 mM ATP
Type: biochemical
Condition set: read-out: JAK3 (4 μM ATP) IC50; 4 μM ATP
pIC50: −log10 of the molar value.
Recorded endpoint: pIC50

Field pIC50 (system: UniProtKB P52333) for entry C=CC(=O)N1CCC[C@@H](Nc2ncnc3[nH]cc(CCOC)c23)C1 [Example 46] = 8.55

Field pIC50 (system: UniProtKB P52333) for entry C=CC(=O)N1CC[C@@H](CNc2cnc3[nH]cc(C(=O)NC(C)C)c3n2)C1 [Example 191] = 8.82

Field pIC50 (system: UniProtKB P52333) for entry C=CC(=O)N1C[C@@H](C)N(c2cnc3[nH]cc(C(=O)NC(C)C)c3n2)[C@@H](C)C1 [Example 328] = 8.80

A. C=CC(=O)N1CCC[C@@H](Nc2ncnc3[nH]cc(CCO)c23)C1 [Example 55]
B. C=CC(=O)N1CCCN(c2cnc3[nH]cc(C(=O)NC(C)C)c3n2)CC1 [Example 185]
C. C=CC(=O)N1CCC[C@@H](Nc2ncnc3[nH]cc(C#N)c23)C1 [Example 45]
D. C=CC(=O)NC1CN(c2cnc3[nH]ccc3n2)C1 [Example 192]
E. C=CC(=O)N1CCC[C@@H](Nc2ncnc3[nH]cc(-c4ccc5c(cnn5C)c4)c23)C1 [Example 34]
## Task Provide the items ranked by increasing pIC50. Please express your ranking as an ordered list of the labels.
## Result D, E, B, A, C
(D: 6.57, E: 7.26, B: 7.69, A: 8.70, C: 9.00)

* * *

Target system: JAK3 enzyme (Homo sapiens (Human), UniProt P52333)
Sequence (P52333 whole entry, species assumed): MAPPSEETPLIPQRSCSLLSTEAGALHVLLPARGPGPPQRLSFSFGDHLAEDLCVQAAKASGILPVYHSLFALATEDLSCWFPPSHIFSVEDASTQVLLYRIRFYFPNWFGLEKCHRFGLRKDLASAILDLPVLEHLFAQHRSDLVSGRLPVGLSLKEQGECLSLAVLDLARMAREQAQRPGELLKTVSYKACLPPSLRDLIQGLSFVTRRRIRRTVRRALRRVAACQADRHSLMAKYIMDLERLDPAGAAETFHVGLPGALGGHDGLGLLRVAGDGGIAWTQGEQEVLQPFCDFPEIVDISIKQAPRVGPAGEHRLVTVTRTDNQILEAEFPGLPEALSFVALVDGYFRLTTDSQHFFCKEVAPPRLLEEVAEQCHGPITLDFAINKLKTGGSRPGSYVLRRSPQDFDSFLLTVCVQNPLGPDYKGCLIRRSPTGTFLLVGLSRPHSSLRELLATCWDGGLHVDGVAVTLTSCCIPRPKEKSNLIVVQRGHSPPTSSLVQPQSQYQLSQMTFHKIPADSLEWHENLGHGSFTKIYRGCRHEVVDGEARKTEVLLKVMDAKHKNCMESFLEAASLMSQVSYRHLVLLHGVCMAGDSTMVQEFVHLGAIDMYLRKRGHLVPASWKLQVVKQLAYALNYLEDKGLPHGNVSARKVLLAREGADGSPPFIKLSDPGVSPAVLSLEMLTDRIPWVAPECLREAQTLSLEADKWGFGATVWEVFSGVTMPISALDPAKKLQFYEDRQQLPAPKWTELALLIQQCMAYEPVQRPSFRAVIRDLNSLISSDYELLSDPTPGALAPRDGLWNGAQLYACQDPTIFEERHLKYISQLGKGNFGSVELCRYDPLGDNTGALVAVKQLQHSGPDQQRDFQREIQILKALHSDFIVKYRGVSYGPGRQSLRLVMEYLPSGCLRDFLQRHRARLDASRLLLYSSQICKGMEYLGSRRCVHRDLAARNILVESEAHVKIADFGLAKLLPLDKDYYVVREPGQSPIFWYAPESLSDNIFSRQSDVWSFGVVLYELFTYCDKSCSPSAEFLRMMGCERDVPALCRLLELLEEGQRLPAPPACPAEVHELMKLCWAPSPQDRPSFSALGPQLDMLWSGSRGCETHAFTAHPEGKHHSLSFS
Experiment notes: JAK Caliper Enzyme Assay at 4 μM or 1 mM ATP
Assay type: biochemical
Condition set: read-out: JAK3 (4 μM ATP) IC50; 4 μM ATP
pIC50: −log10 of the molar value.
Recorded endpoint: pIC50

Guide cases for pIC50, answers given:
Field pIC50 (system: JAK3 enzyme (Homo sapiens (Human), UniProt P52333)) for entry C=CC(=O)N1[C@H](C)CN(c2cnc3[nH]cc(C(=O)NC(C)C)c3n2)C[C@@H]1C = 8.41

Field pIC50 (system: JAK3 enzyme (Homo sapiens (Human), UniProt P52333)) for entry C=CC(=O)N1CCC(Nc2cnc3[nH]cc(C(=O)NCC(C)(C)C)c3n2)CC1 = 9.40

Field pIC50 (system: JAK3 enzyme (Homo sapiens (Human), UniProt P52333)) for entry C=CC(=O)N1CCC(Nc2cnc3[nH]cc(C(=O)NC45CC(C4)C5)c3n2)CC1 = 9.40

1. C=C(CO)C(=O)N1CCC[C@@H](Nc2ncnc3[nH]ccc23)C1
2. C=CC(=O)N1CCC(Nc2cnc3[nH]cc(C(=O)NC4CC(F)(F)C4)c3n2)CC1
## Task Thinking about recorded pIC50 values, which is higher, 1 or 2 ? Refer to your chosen entry by its label in the reply.
## Result 2
(2: 9.70, 1: 6.15)

A. N#CC(C(=O)N1CCC[C@@H](Nc2ncnc3[nH]ccc23)C1)=C1CCOCC1
B. C=CC(=O)N1CCC[C@@H](Nc2ncnc3[nH]cc(-c4cnc(N5CCOCC5)nc4)c23)C1
## Task Between A and B , which one has the lower reported pIC50 value? Refer to your chosen entry by its label in the reply.
## Result A

a. C=CC(=O)N1CCN(c2cnc3[nH]cc(C(=O)NC(C)C)c3n2)C(C)(C)C1
b. C=CC(=O)N1CC[C@@H](Nc2cnc3[nH]ccc3n2)C1
## Task Thinking about recorded pIC50 values, which is higher, a or b ? Refer to your chosen entry by its label in the reply.
## Result a

Values were extracted from patent US20250134869A1.
